Recorded values, source the supplement of paper PMC12632987.

I'd appreciate it if you could supply median log2 fold change values for the items below.
Target: T1, FBXL12, Q9NXK8
T1 chain: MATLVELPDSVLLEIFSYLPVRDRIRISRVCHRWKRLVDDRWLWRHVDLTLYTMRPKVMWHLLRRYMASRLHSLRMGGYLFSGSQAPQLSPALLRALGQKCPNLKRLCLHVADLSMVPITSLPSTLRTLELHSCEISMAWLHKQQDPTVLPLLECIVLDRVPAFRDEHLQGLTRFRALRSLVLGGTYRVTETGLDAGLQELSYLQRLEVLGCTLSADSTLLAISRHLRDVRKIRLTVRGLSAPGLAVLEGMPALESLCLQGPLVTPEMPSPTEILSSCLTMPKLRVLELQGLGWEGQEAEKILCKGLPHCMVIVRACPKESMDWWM
Experiment: median log2 fold change of GCK-ALFA target abundance (FLAG IP / Myc IP barcode read proportion) (log2 ratio); each designed protein is fused to an ALFA-tag nanobody in HEK293 cells to bring the named protein to FLAG-tagged glucokinase (GCK); Myc marks an untargeted standard; higher = target protein stabilised (more abundant)
Details: target protein: 3xFLAG-MCP-GCK-ALFA reporter; HEK293 landing pad (RPLP)
Answers are plain numbers.

The following binders have reported results that may help.
[
  {
    "BINDER": "FBXL12_hotspot_35_57 (protein) MRTVVVQNAGSSLEGVRYAALAALVAVRVLGARLEVQISPDASREQRLILAAAEALASGRPLEEVVAERGLSEEELEEVRRIAEELRAEAERAVAELRAR",
    "PROPERTY MEASURED": "median log2 fold change",
    "REPORTED": -0.0958
  },
  {
    "BINDER": "FBXL12_hotspot_9_110 (protein) SSILVIAHVTTRETADTTLATARAVTTGLAAHHDRVDVLIVVSDPEHADEMAALAEATAAELEAEHPNVRAEVVRAPDEAAGRAAIEAREAEFLAAAAEE",
    "PROPERTY MEASURED": "median log2 fold change",
    "REPORTED": -0.0129
  },
  {
    "BINDER": "FBXL12_hotspot_54_69 (protein) KTVLIVVEAETLPALERSLATALEIARGLRAAGVRVEVRIRVRHPDVAAAAEAATRAAAEFRELGAERIEVEIETATEEDRERAEAARRETEARLAAEKA",
    "PROPERTY MEASURED": "median log2 fold change",
    "REPORTED": -0.0113
  },
  {
    "BINDER": "FBXL12_hotspot_59_75 (protein) MLEIRVSAHPDESLEAIKRTVEYAIEMIKELIKRGRIEDAKAAIRSVTRSVTEIVIRKGNEELAEHFLELLEELKEIANEEVKKVIEEAMEEFRERVAAA",
    "PROPERTY MEASURED": "median log2 fold change",
    "REPORTED": -0.31
  },
  {
    "BINDER": "FBXL12_hotspot_186_28 (protein) SDLEVRVTLGEDLETTKSTLDYAVALAEALKARGLTGSLRSLARSFRESAIARLKKSDDPEIYDAILEAAEKLREVVADDPEAKAIIDEAIAEIKAIKAE",
    "PROPERTY MEASURED": "median log2 fold change",
    "REPORTED": 0.157
  },
  {
    "BINDER": "FBXL12_hotspot_16_18 (protein) REIIVVVGLLEAERVESTLTTARDIVAGLREAGVDRVDVVIYTETPEAAAKLAELRPTIVAAIEAEVAAAGGRLSVHDTREAAEATREAILAEIDEREAA",
    "PROPERTY MEASURED": "median log2 fold change",
    "REPORTED": 0.0965
  }
]

Please state median log2 fold change for every binder in the list that follows.
1. FBXL12_hotspot_35_59 (protein) MRTVRVVFRGTSPEGARYMALAAALAAKELGARVEIEIDPNESREVRIIAGALMVLAEGRSLEEVVEELGLTEEEVEEMKRIAEELRKETERLAAELRAR
2. FBXL12_hotspot_9_105 (protein) KHIIVVASAATKEAFLNSSRTALEIAIGLAKAGHKVTVILSYDDPEKFEEWRAALEEELKELLEEAKELGIKIHYAPSPEEKERILEEVLEEHDEEEEEE
3. FBXL12_hotspot_109_6 (protein) MRVILSALGTEPELAERTFEATVTIAEGLLAAGHEVRVVLVAVEENREVAEAAAARLRALGAEVRLVVEETPEAAREAHERLLAEAEEELDREEEERERA

// result
1. -0.274
2. 0.136
3. 0.11
